test system: Escherichia coli; test: Minimum Inhibitory concentration measured against Escherichia coli ATCC 1-25922; assay type: functional
Threshold check on MIC: strictly below 0.06 µg/mL is Y; on or above 0.06 µg/mL is N.

[
  {
    "molecule": "COCc1cc(-c2cc3c(cc2F)c(=O)c(C(=O)O)cn3C2CC2)cc(C)n1",
    "cat": "N"
  },
  {
    "molecule": "O=C(O)c1cn(C2CC2)c2cc(-c3cccnc3)c(F)cc2c1=O",
    "cat": "Y"
  },
  {
    "molecule": "Cc1cc(-c2nc3c(cc2F)c(=O)c(C(=O)O)cn3C2CC2)cc(C)n1",
    "cat": "N"
  }
]

Q: Given Cc1cc(-c2cc3c(cc2F)c(=O)c(C(=O)O)cn3C2CC2)ccn1 , is recorded MIC strictly lower than 0.06 µg/mL?
Result: Y

Q: Next entry: CCn1cc(C(=O)O)c(=O)c2ccc(-c3ccncc3)cc21 [ROSOXACIN]
Result: N

Q: Next entry: Cc1cc(-c2cc3c(cc2F)c(=O)c(C(=O)O)cn3C2CC2)cc(C)n1
Result: Y

Q: Next entry: O=C(O)c1cn(C2CC2)c2cc(-c3ccncc3)c(F)cc2c1=O
Result: Y

Q: Next entry: Cc1cc(-c2ccc3c(=O)c(C(=O)O)cn(C4CC4)c3c2)cc(C)n1
Result: N

* * *

test system: Enterococcus faecalis; test: Minimum Inhibitory concentration measured against Streptococcus faecalis ATCC 29212; format: functional
Exercise: for every item that follows, state its recorded MIC.
Numbers only, in µg/mL.

[
  {
    "smi": "Cc1cc(-c2ccc3c(=O)c(C(=O)O)cn(C4CC4)c3c2)cc(C)n1",
    "assayed_target": "Enterococcus faecalis",
    "MIC, µg/mL": 0.5
  },
  {
    "smi": "Cc1ccc(-c2cc3c(cc2F)c(=O)c(C(=O)O)cn3C2CC2)cn1",
    "assayed_target": "Enterococcus faecalis",
    "MIC, µg/mL": 0.25
  }
]

Provide reported MIC for each item, in the same order as listed.
1. CNn1cc(C(=O)O)c(=O)c2cc(F)c(-c3cc(C)nc(C)c3)cc21
2. CCn1cc(C(=O)O)c(=O)c2cc(F)c(N3CCNCC3)cc21
3. CCn1cc(C(=O)O)c(=O)c2ccc(-c3cc(C)nc(C)c3)cc21

Result:
1. 0.5
2. 4
3. 1

* * *

system: Bacteroides fragilis; assay: Minimum Inhibitory concentration measured against Bacteroides fragilis ATCC 25285; format: functional
Threshold check on MIC: strictly below 4 µg/mL is met; on or above 4 µg/mL is not met.

Solved cases below.
[
  {
    "smi": "Cc1cc(-c2ccc3c(=O)c(C(=O)O)cn(C4CC4)c3c2)cc(C)n1",
    "cat": "not met"
  },
  {
    "smi": "CCn1cc(C(=O)O)c(=O)c2cc(F)c(-c3ccncc3)cc21",
    "cat": "not met"
  },
  {
    "smi": "CCn1cc(C(=O)O)c(=O)c2ccc(-c3ccncc3)cc21",
    "cat": "not met"
  }
]

Q: Given CCNCc1cc(-c2cc3c(cc2F)c(=O)c(C(=O)O)cn3C2CC2)cc(C)n1 , is recorded MIC strictly lower than 4 µg/mL?
Result: not met

Q: Next entry: Cc1cncc(-c2cc3c(cc2F)c(=O)c(C(=O)O)cn3C2CC2)c1
Result: met

Q: Next entry: Cc1cc(-c2cc3c(cc2F)c(=O)c(C(=O)O)cn3C2CC2)ccn1
Result: met

Q: Next entry: Cc1cc(-c2cc3c(cc2F)c(=O)c(C(=O)O)cn3C2CC2)cc(C)n1
Result: met

Q: Next entry: Cc1cc(-c2cc3c(cc2F)c(=O)c(C(=O)O)cn3C2CC2)cc(CN(C)C)n1
Result: met

Q: Next entry: CCn1cc(C(=O)O)c(=O)c2cc(F)c(-c3cc(C)nc(C)c3)cc21
Result: met
